Assignment: determine reported CMV Neutr. IC50 for the given binders.
Assayed system: CMV AD169 envelope glycoprotein B (gB) (human cytomegalovirus strain AD169, UniProt P06473 32-906)
Sequence (P06473 32-906 limits assumed): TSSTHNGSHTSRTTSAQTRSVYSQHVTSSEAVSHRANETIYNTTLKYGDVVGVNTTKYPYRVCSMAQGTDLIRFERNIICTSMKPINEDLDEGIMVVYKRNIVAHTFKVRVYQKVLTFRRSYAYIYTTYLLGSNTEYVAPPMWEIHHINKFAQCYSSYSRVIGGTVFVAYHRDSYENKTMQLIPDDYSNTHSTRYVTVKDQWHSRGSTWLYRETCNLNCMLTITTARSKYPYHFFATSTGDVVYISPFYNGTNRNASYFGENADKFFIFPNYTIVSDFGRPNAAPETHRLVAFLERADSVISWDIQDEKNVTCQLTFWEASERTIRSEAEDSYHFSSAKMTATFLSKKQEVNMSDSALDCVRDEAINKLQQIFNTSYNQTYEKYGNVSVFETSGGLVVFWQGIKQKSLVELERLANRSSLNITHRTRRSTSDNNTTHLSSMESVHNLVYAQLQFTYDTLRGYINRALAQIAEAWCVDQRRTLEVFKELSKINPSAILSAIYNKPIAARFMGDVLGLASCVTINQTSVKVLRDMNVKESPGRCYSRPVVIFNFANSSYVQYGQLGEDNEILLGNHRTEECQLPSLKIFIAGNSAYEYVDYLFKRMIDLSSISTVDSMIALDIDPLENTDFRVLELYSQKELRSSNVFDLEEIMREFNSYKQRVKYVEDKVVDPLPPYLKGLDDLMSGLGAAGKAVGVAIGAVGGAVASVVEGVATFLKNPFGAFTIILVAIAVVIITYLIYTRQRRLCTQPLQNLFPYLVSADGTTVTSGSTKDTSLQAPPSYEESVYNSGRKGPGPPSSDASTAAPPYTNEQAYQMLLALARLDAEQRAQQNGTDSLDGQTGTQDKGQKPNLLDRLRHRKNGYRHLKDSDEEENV
Method: cell-based or functional assay

As a guide, the following entries are already answered.
C8 (antibody, V domains shown, Human IgG, transiently expressed in HEK293) VH: QVQLQESGPGLVKPLETLSLTCTVSGGSISSGSFYWTWIRQHPGKGLEWIGYIHSSGTTYYNPSLKSRLNISRDTSKNQFTLKLSSVTAADTAVYYCAKEIIQWPRRWFDPWGQGTLVTVSS VL: QSVLTQPPSVSAAPGQKVTISCSGSRSNIGKNYVYWYQQLPGTAPKLLIYDNNKRPSGIPDRFSGSKSGTSATLAITGLQTGDEADYYCGTWDSSLKTGIFFGGGTKLTVLG :: > 50 µg/mL
C5 (antibody, V domains shown, Human IgG, transiently expressed in HEK293) VH: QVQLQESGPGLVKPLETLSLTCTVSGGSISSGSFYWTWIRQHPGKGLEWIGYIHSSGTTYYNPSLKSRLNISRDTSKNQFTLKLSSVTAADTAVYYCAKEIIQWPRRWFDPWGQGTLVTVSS VL: QSMLTQPPSVSAAPGQKVIISCSGSSSNIGNNFVNWYQKFPGTAPKLLIYDNDKRPSGIPDRFSGSKSGTSATLGITGLQTGDEAEYYCGTWDSSLTAGVFGGGTTLTVLG :: < 6 µg/mL

Could I get CMV Neutr. IC50 for every one of these entries?
1. C3 (antibody, V domains shown, Human IgG, transiently expressed in HEK293) VH: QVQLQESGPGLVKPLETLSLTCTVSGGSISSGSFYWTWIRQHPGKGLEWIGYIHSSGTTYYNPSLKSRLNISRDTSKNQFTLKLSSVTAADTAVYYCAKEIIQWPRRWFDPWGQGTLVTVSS VL: QSMLTQPPSVSAAPGQKVIISCSGSSSNIGNNYVNWYQQLPGTAPKLLIYDNDKRPSGIPDRFSGSKSGTSATLGITGLQTGDEADYYCGTWDSTLTAGVFGGGTKLTVLG
2. C10 (antibody, V domains shown, Human IgG, transiently expressed in HEK293) VH: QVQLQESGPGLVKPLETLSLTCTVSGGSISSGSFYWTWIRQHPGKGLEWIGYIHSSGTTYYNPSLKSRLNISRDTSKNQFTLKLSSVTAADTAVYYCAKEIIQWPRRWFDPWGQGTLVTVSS VL: QSVLTQPPSASGTPGQRVTISCSGSSSNIGSNYIDWYQQLPGTGPQLLTYRNNQRPSGVPDRFSGSKSGTSASLAISGLRSEDEADYYCASWDDSLSSPVFGGGTKLTVLG
3. C11 (antibody, V domains shown, Human IgG, transiently expressed in HEK293) VH: EVQLLESGGGLIQPGGSLRLSCVASGFTFTRHAINWVRQAPGKGLEWVSAISGSGSSTYYADSVKGRFTISRDNAKNTLYLQMNRLRVEDTAVYYCAKDKDYGMVAATPDAFDIWGQGTMVTVSS VL: QSVLTQPPSVSAAPGQKVTISCSGSRSNIAKNYVYWYQQLPGTAPKLLIYDTNKRPSGIPDRFSGSKSGTSATLAITGLQTGDEADYYCGTWDSSLKTAIFFGGGTTVTVLG
4. C9 (antibody, V domains shown, Human IgG, transiently expressed in HEK293) VH: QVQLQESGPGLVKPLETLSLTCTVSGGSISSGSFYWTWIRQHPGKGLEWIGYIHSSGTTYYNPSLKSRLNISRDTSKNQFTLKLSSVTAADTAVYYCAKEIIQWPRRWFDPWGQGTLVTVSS VL: QSVLTQPPSVSAAPGQKVTISCSGSRSNIAKNYVYWYQQLPGTAPKLLIYDTNKRPSGIPDRFSGSKSGTSATLAITGLQTGDEADYYCGTWDSSLKTAIFFGGGTTVTVLG
5. C12 (antibody, V domains shown, Human IgG, transiently expressed in HEK293) VH: QVQLQESGPGLVKPLETLSLTCTVSGGSIRGGDYWWTWVRQPPGKGLEWLGYIYRTGSTYYNPSLKSRLTISLDTSKNHFSLKLASATAADTAVYYCARDPGDDSGGNSGLDYWGQGVLVSVSS VL: QSMLTQPPSVSAAPGQKVIISCSGSSSNIGNNFVNWYQKFPGTAPKLLIYDNDKRPSGIPDRFSGSKSGTSATLGITGLQTGDEAEYYCGTWDSSLTAGVFGGGTTLTVLG
6. C15 (antibody, V domains shown, Human IgG, transiently expressed in HEK293) VH: EMQLLESGGGLVQPGGSLRVSCAASGFTFSSHAMSWVRQAPGKGLEWVSSISRSGDNTFYADSVKGRFTISRDNIKSTVYLQMNSLRAEDTAVYFCASRYTEGDSVWYFDVWGRGTLVTVSS VL: EVVLTQSPATLSVSAGDRATLSCRASQSVSRDLAWYQQKPGQAPRLLIYGASTRATDIPVRFSGSGSGTEFSLTISSLQSEDFAVYYCHQYKHWPRTFGQGTKVEIKR
7. C4 (antibody, V domains shown, Human IgG, transiently expressed in HEK293) VH: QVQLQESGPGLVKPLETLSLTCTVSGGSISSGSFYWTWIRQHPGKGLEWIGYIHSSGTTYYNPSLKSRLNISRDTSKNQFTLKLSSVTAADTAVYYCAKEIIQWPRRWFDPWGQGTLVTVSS VL: QSVLTQPPSVSAAPGQKVIISCSGSGSNIGSHYVNWYQQLPGAAPKLLIYDNDKRPSGIPDRFSGSKSGTSATLAITGLQTGDEADYHCATWDGTLTAGVFGGGTKLTVLG

a:
1. < 0.07 µg/mL
2. > 50 µg/mL
3. > 50 µg/mL
4. > 50 µg/mL
5. > 50 µg/mL
6. < 0.3 µg/mL
7. < 0.04 µg/mL

Where these numbers come from: patent US20150110794A1
